System: NCI-H226 lung
METHOD_SUMMARY: NCI tumour cell line growth inhibition, 48 h
VALUE_KIND: TGI

Some compounds with known TGI results, for comparison:
INSERT INTO assay_data (compound, result) VALUES
  ('COC1OC2COC(C)(C)OC2C(OC(C)=O)C1NC(=O)N(CCCl)N=O (centres undefined)', '> 100 µM'),
  ('CSc1nc2c(c(=O)n1C)N=C(c1ccc([N+](=O)[O-])cc1)CC(c1ccccc1)N2 (centres undefined)', '> 100 µM'),
  ('CCOc1ccn(-c2ccc(F)cc2)c(=O)c1C(=O)Nc1ccc(Oc2ccnc(N)c2Cl)c(F)c1', '> 96.1 µM'),
  ('COC(=O)CCNC(=O)OCc1ccccc1', '> 100 µM'),
  ('O=C(O)C1[O][Sb][O]C(C(=O)O)C1O (centres undefined)', '> 100 µM');

Please report TGI for every entry that follows.
1. CCOc1ccccc1N=Nc1c(-c2ccccc2)nn(C(=O)CC(=O)Nc2cccc(C)c2)c1-c1ccccc1
2. CCCCCCCCCOCC(COP(=O)([O-])OCC[N+](C)(C)C)OC (centres undefined)
3. O=C1C2C3CC(C4C5C=CC(C5)C34)C2C2C3CC(C12)C1C2C=CC(C2)C31 (centres undefined)
4. CCOC(=O)C(C#N)C1=CC(=O)C(=O)c2ccc(O)cc21 (centres undefined)

1. > 100 µM
2. > 100 µM
3. > 100 µM
4. > 100 µM

Give one value of TGI per listed compound.
1. Cc1cccc(C)c1N1C(=O)C(=O)C(c2nc3ccccc3s2)/C(=N\N)C1=O (centres undefined)
2. COC1CC(OC2C(C)OC(OC3C(C)OC(OC4C(C)OC(O[C@H]5CC[C@@]6(C)C(=CC[C@]7(O)[C@@H]6C[C@@H](OC(C)=O)[C@@]6(C)[C@]7(O)CC[C@@]6(O)C(C)=O)C5)CC4OC)CC3OC)CC2OC)OC(C)C1O (some centres undefined)
3. CN1CCN(C(=O)COc2ccc(/C=C3\CC4C5CC=C6CC(Cl)CCC6(C)C5CCC4(C)C3=O)cc2)CC1 (centres undefined)
4. CCC(C)[C@@H](Nc1c(O)c2c(c(O)c1Cl)C(=O)C=CC2=O)C(=O)OC (some centres undefined)
5. C=CC1CN(C(=O)OCC)N(C(=O)OCC)C1CCc1ccccc1 (centres undefined)
6. O=C(CSCC(=O)N/N=C\c1cccc([N+](=O)[O-])c1)N/N=C\c1cccc([N+](=O)[O-])c1

["> 100 µM", "> 25 µM", "> 100 µM", "> 10 µM", "> 100 µM", "> 100 µM"]

Go through the items and report each one's TGI.
1. COc1ccccc1/C=C/C1=NN(c2cccc(S(=O)(=O)O)c2)C2(C1)C(Cl)C(=O)N2c1nc2ccccc2s1 (centres undefined)
2. CCOC(=O)c1c(NC(=S)Nc2ccc(Cl)cc2)sc2c1CCN(C)C2
3. N/N=C(/Cc1nc2ccc(C(=O)c3ccccc3)cc2[nH]c1=O)C(=O)Nc1ccc([N+](=O)[O-])cc1[N+](=O)[O-]
4. CCC1(c2ccc(N3C(=O)c4cc(OC)c(OC)cc4C3=O)cc2)CCC(=O)NC1=O (centres undefined)

["> 100 µM", "> 100 µM", "> 100 µM", "> 10 µM"]
